experiment: MRT (0 to t) in Sprague-Dawley rat at 10 mg/kg, po by LC-MS/MS analysis; type: ADME, organism-based; details: in vivo
Property: MRT last (h)
Use h as the unit, but write only the number.

Input: Any idea what MRT last was measured for "Cc1cccc(S(=O)(=O)Nc2cc(-c3sc(NC(=O)[C@@H](N)C(C)C)nc3C)cnc2Cl)c1" ?
Output: 1.18

====

experiment: MRT (0 to infinity) in Sprague-Dawley rat at 1 mg/kg, iv by LC-MS/MS analysis; format: ADME, organism-based; conditions: in vivo
Property: MRT inf (min)
Just the number in min, nothing appended.

Input: Can you look up the measured MRT inf of "Cc1cccc(S(=O)(=O)Nc2cc(-c3sc(NC(=O)[C@@H](N)C(C)C)nc3C)cnc2Cl)c1" for me?
Output: 22.8

Values were extracted from ChEMBL document CHEMBL4152344.
